Read-out: Phosphatase and tensin (PTEN), PTEN (gene 5728)
protocol.details: LTEA_HepaRG_PTEN: Life Technologies and Expression Analysis (LTEA) Assay for Phosphatase and tensin (PTEN) using HepaRG (AID 2283523)
conditions.used: mRNA level, 48 h; actives raise or lower the signal
Calls of active or inactive are those of the source. Rule for the calls: active = hit-call score of the fitted dose curve at least 0.9, where 1 is the maximum; inactive = score below 0.9.
Please answer using one outcome listed in active, inactive

Answered examples (2):
molecule	assigned.label
NC(=O)NO	inactive
COCCOc1cc2cc(C(=O)NC3CCN(C(C)C)CC3)n(CC(=O)Nc3ccc(Cl)cn3)c2cn1	active

INPUT: Look up the recorded call for Cc1[nH]cnc1C[C@H]1CCc2c(C)c3ccccc3n2C1=O in this test.
OUTPUT: active

INPUT: Look up the recorded call for CC(C)=CCC/C(C)=C\CO in this test.
OUTPUT: inactive

INPUT: Look up the recorded call for O=C(O)CC(O)C(=O)O (stereo not drawn) in this test.
OUTPUT: inactive

INPUT: Look up the recorded call for CCOCCO in this test.
OUTPUT: inactive

INPUT: Look up the recorded call for COCCOCCOCCOC in this test.
OUTPUT: inactive

INPUT: Look up the recorded call for Cc1ccc(N)cc1O in this test.
OUTPUT: inactive

----------
Read-out: Collagen III, COL3A1 (gene 1281)
protocol.details: BSK_hDFCGF_CollagenIII: BioMAP Diversity Plus: hDFCGF Assay for Collagen III Biomarker Activity (AID 2283056)
conditions.used: primary human foreskin fibroblasts; actives raise or lower the signal
The source made the active and inactive calls. The calls were made as follows: active = hit-call score of the fitted dose curve at least 0.9, where 1 is the maximum; inactive = score below 0.9.
Please answer using one outcome listed in class 1 (active), class 0 (inactive)

Answered examples (5):
molecule	assigned.label
COC(=O)CC(=O)OC	class 0
CCCCCCCCO	class 0
Cc1c(-c2cccnc2)c2ccccc2n1CCCCC(=O)O	class 0
O=C1OC(=O)C2C3C=CC(C3)C12 (stereo unspecified)	class 0
O=C(O)c1cc(N=Nc2ccc(S(=O)(=O)Nc3ccccn3)cc2)ccc1O	class 0

INPUT: Look up the recorded call for Fc1ccccc1[C@@H](F)COC1CCC(Nc2ncnc3[nH]ncc23)CC1 (stereo partly specified) in this test.
OUTPUT: class 0

INPUT: Look up the recorded call for O=P(OC(CCl)CCl)(OC(CCl)CCl)OC(CCl)CCl in this test.
OUTPUT: class 1

INPUT: Look up the recorded call for Cc1ccc(C)c(O)c1 in this test.
OUTPUT: class 0

INPUT: Look up the recorded call for CCOCCOCCOCCO in this test.
OUTPUT: class 0

INPUT: Look up the recorded call for Cc1[nH]cnc1C[C@H]1CCc2c(C)c3ccccc3n2C1=O in this test.
OUTPUT: class 1

INPUT: Look up the recorded call for CC[C@H]1OC(=O)[C@H](C)[C@@H](O[C@H]2C[C@@](C)(OC)[C@@H](O)[C@H](C)O2)[C@H](C)[C@@H](O[C@@H]2O[C@H](C)C[C@H](N(C)C)[C@H]2O)[C@](C)(O)C[C@@H](C)C(=O)[C@H](C)[C@@H](O)[C@]1(C)O in this test.
OUTPUT: class 0

----------
Read-out: Tumor necrosis factor (Homo sapiens)
protocol.details: BSK_LPS_TNFa: BioMAP Diversity Plus: LPS Assay for Tumour Necrosis Factor alpha (TNFa) Biomarker Activity (AID 2283085);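 for AC50: TNFa protein level quantified by ELISA in the co-culture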
conditions.used: primary human HUVEC with PBMC; actives raise or lower the signal
Calls of active or inactive are those of the source. How the source made its calls: active means hit-call score of the fitted dose curve at least 0.9, where 1 is the maximum; inactive means score below 0.9.
quantity.measured: AC50

compound	quantity.measured	result
Clc1nc(Cl)c(Cl)c(Cl)c1Cl	AC50	31.7 µM (active)
Fc1ccccc1[C@@H](F)COC1CCC(Nc2ncnc3[nH]ncc23)CC1 (stereo partly drawn)	AC50	inactive
Nc1nc2ncc(CNc3ccc(C(=O)N[C@@H](CCC(=O)O)C(=O)O)cc3)nc2c(=O)[nH]1	AC50	inactive
